Test system: Enterococcus faecalis
Experiment: Antibacterial activity against vancomycin-resistant Enterococcus faecalis ATCC 51575 assessed as bacterial growth inhibition incubated for 18 to 20 hrs by CLSI based broth microdilution assay
Type: functional
Details: time 18-20 hrs

MOLECULE | MIC
O=C(O)c1ccc([C@@H]2Nc3ccc(S(F)(F)(F)(F)F)cc3[C@H]3[C@@H]4CC[C@@H](C4)[C@H]32)cc1 | 4 µg/mL
FC(F)(F)c1ccc2c(c1)N[C@@H](c1c[nH]nc1C(F)(F)F)[C@@H]1[C@H]3CC[C@H](C3)[C@H]21 | 8 µg/mL
FC(F)(F)c1n[nH]cc1[C@@H]1Nc2ccc(S(F)(F)(F)(F)F)cc2[C@H]2[C@@H]3CC[C@@H](C3)[C@H]21 | 4 µg/mL
FC(F)(F)Oc1ccc2c(c1)[C@H]1[C@@H]3CC[C@@H](C3)[C@H]1[C@H](c1c[nH]nc1C(F)(F)F)N2 | 8 µg/mL
CN[C@H](CC(C)C)C(=O)N[C@H]1C(=O)N[C@@H](CC(N)=O)C(=O)N[C@H]2C(=O)N[C@H]3C(=O)N[C@H](C(=O)N[C@H](C(=O)O)c4cc(O)cc(O)c4-c4cc3ccc4O)[C@H](O)c3ccc(c(Cl)c3)Oc3cc2cc(c3O[C@@H]2O[C@H](CO)[C@@H](O)[C@H](O)[C@H]2O[C@H]2C[C@](C)(N)[C@H](O)[C@H](C)O2)Oc2ccc(cc2Cl)[C@H]1O [VANCOMYCIN] | > 128 µg/mL
FC(F)(F)Sc1ccc2c(c1)[C@H]1[C@@H]3CC[C@@H](C3)[C@H]1[C@H](c1c[nH]nc1C(F)(F)F)N2 | 8 µg/mL
FC(F)(F)c1n[nH]cc1-c1nc2ccc(S(F)(F)(F)(F)F)cc2c2c1[C@H]1CC[C@@H]2C1 | 8 µg/mL

* * *

System: Staphylococcus aureus
Experiment: Antibacterial activity against methicillin-resistant Staphylococcus aureus USA300 assessed as bacterial growth inhibition incubated for 18 to 20 hrs by CLSI based broth microdilution assay
Format: functional
Conditions: time 18-20 hrs

ENTRY_SMILES | MIC [µg/mL]
FC(F)(F)c1n[nH]cc1[C@@H]1Nc2ccc(S(F)(F)(F)(F)F)cc2[C@H]2[C@@H]3CC[C@@H](C3)[C@H]21 | 4
FC(F)(F)c1ccc2c(c1)N[C@@H](c1c[nH]nc1C(F)(F)F)[C@@H]1[C@H]3CC[C@H](C3)[C@H]21 | 8
FC(F)(F)c1n[nH]cc1-c1nc2ccc(S(F)(F)(F)(F)F)cc2c2c1[C@H]1CC[C@@H]2C1 | 8
FC(F)(F)Oc1ccc2c(c1)[C@H]1[C@@H]3CC[C@@H](C3)[C@H]1[C@H](c1c[nH]nc1C(F)(F)F)N2 | 8
O=C(O)c1ccc([C@@H]2Nc3ccc(S(F)(F)(F)(F)F)cc3[C@H]3[C@@H]4CC[C@@H](C4)[C@H]32)cc1 | 16
FC(F)(F)Sc1ccc2c(c1)[C@H]1[C@@H]3CC[C@@H](C3)[C@H]1[C@H](c1c[nH]nc1C(F)(F)F)N2 | 4
